# assay.details: in vivo
# Parameters: species or system mice
# particulars: mouse, iv, 3.4 MBq, total radioactivity, Biodistribution, Bone
# Procedure: Blood and major organs were harvested immediately, weighed, and counted using a γ-counter. The radioactivity of each sample was calculated as the percentage of injected dose per gram of tissue (%ID/g) and corrected for radioactive decay.
reported.property: tissue uptake at 0.5 h (%ID/g)
Give bare numbers, in %ID/g.

Exercise: Requested read-out: tissue uptake at 0.5 h. Entry: CC(=O)NC(CCCCNC(=O)CN1CCN(CC(=O)O)CCN(CC(=O)O)CCN(CC(=O)O)CC1)C(=O)N1CCCC1C(=O)N(C)C(CCCNC(=N)N)C(=O)NC(CCCNC(=N)N)C(=O)N1CCCC1C(=O)NC(Cc1ccc(O)cc1)C(=O)NC(C(=O)NC(CC(C)C)C(=O)O)C(C)(C)C (stereo not shown) [^68Ga-DOTA-NT-20.3, metal not drawn]
Key: 1.27

---

# assay.details: in vivo
# Set-up: species or system mice
# particulars: mouse, iv, 3.4 MBq, total radioactivity, Biodistribution, Heart
reported.property: tissue uptake at 2 h
Field: value (include unit after the number)

Exercise: Requested read-out: tissue uptake at 2 h. Entry: CC(=O)NC(CCCCNC(=O)CN1CCN(CC(=O)O)CCN(CC(=O)O)CCN(CC(=O)O)CC1)C(=O)N1CCCC1C(=O)N(C)C(CCCNC(=N)N)C(=O)NC(CCCNC(=N)N)C(=O)N1CCCC1C(=O)NC(Cc1ccc(O)cc1)C(=O)NC(C(=O)NC(CC(C)C)C(=O)O)C(C)(C)C (stereo not shown) [^68Ga-DOTA-NT-20.3, metal not drawn]
Key: 0.58 %ID/g

---

# assay.details: in vivo
# Set-up: species or system mice
# particulars: mouse, iv, 3.4 MBq, total radioactivity, Biodistribution, Spleen
reported.property: tissue uptake at 2 h (%ID/g)
One number for each entry, in %ID/g.

Exercise: Requested read-out: tissue uptake at 2 h. Entry: CC(=O)NC(CCCCNC(=O)CN1CCN(CC(=O)O)CCN(CC(=O)O)CCN(CC(=O)O)CC1)C(=O)N1CCCC1C(=O)N(C)C(CCCNC(=N)N)C(=O)NC(CCCNC(=N)N)C(=O)N1CCCC1C(=O)NC(Cc1ccc(O)cc1)C(=O)NC(C(=O)NC(CC(C)C)C(=O)O)C(C)(C)C (stereo not shown) [^68Ga-DOTA-NT-20.3, metal not drawn]
Key: 0.41

---

# assay.details: in vivo
# Design: species or system mice
# particulars: mouse, iv, 3.4 MBq, total radioactivity, Biodistribution, Spleen
# Experimental: Blood and major organs were harvested immediately, weighed, and counted using a γ-counter. The radioactivity of each sample was calculated as the percentage of injected dose per gram of tissue (%ID/g) and corrected for radioactive decay.
reported.property: tissue uptake at 5 min (%ID/g)
Numbers only, in %ID/g.

Exercise: Requested read-out: tissue uptake at 5 min. Entry: CC(=O)NC(CCCCNC(=O)CN1CCN(CC(=O)O)CCN(CC(=O)O)CCN(CC(=O)O)CC1)C(=O)N1CCCC1C(=O)N(C)C(CCCNC(=N)N)C(=O)NC(CCCNC(=N)N)C(=O)N1CCCC1C(=O)NC(Cc1ccc(O)cc1)C(=O)NC(C(=O)NC(CC(C)C)C(=O)O)C(C)(C)C (stereo not shown) [^68Ga-DOTA-NT-20.3, metal not drawn]
Key: 3.97
